Tested on: HCT-15 colon
Assay: NCI tumour cell line growth inhibition, 48 h
Kindly supply the reported TGI values for the records listed here.

Please review the entries below; each comes with its answer.
>  <COMPOUND>
COc1c2c(cc3c1C(O)N1CC[C@]34[C@H]3O[C@H]3[C@H](OC)C[C@@H]14)OCO2 (some centres undefined)

>  <SYSTEM_NAME>
HCT-15 colon

>  <TGI>
> 100 µM

$$$$
>  <COMPOUND>
O=C1C(=O)c2ccccc2-c2ccccc21

>  <SYSTEM_NAME>
HCT-15 colon

>  <TGI>
2.92 µM

$$$$
>  <COMPOUND>
O=C(c1cccc(OCc2ccccc2)c1OCc1ccccc1)N1CCSC1=S

>  <SYSTEM_NAME>
HCT-15 colon

>  <TGI>
> 100 µM

$$$$
>  <COMPOUND>
O=c1c2ccccc2nc(-c2ccc(Br)cc2)n1NC1OC(CO)C(O)C(O)C1O (centres undefined)

>  <SYSTEM_NAME>
HCT-15 colon

>  <TGI>
> 100 µM

$$$$
>  <COMPOUND>
Cc1ccc(S(=O)(=O)/N=c2\ssc(Nc3ccccc3)c2Cl)cc1

>  <SYSTEM_NAME>
HCT-15 colon

>  <TGI>
34.4 µM

$$$$

Look up TGI for the entries below, preserving their order.
1. O=C(/C=C\c1cccc2ccccc12)c1cccs1
2. S=c1nc2[nH]ncc2c(N/N=C/c2ccccc2)[nH]1
3. O=S1(=O)OC(c2ccc(O)cc2)(c2ccc(O)cc2)c2ccccc21
4. COC(=O)C1C(C)N1C (centres undefined)

13.8 µM
> 100 µM
> 100 µM
> 100 µM

---

# MOLT-4 leukemia: GI50 values follow

Please review the entries below; each comes with its answer.
>  <SMILES_DATA>
CCOC(=O)/C(=C/c1ccc([N+](=O)[O-])cc1)C(=O)c1ccccc1

>  <SYSTEM_NAME>
MOLT-4 leukemia

>  <GI50>
3.01 µM

$$$$
>  <SMILES_DATA>
COc1cc2ccc3c4c(OC)cc(OC)c(OC)c4c(=O)n(C)c3c2cc1OC

>  <SYSTEM_NAME>
MOLT-4 leukemia

>  <GI50>
0.591 µM

$$$$
>  <SMILES_DATA>
Cc1cccc2c(N=Nc3ccc(S(N)(=O)=O)cc3)c(O)[nH]c12

>  <SYSTEM_NAME>
MOLT-4 leukemia

>  <GI50>
> 25 µM

$$$$

Look up GI50 for the entries below, preserving their order.
1. CC(=O)O[C@H]1C(=O)O[C@@H]2C[C@H]3C(C)=CC(=O)[C@@H](O)[C@]3(C)[C@H]3[C@@]4(O)OC[C@]32[C@@H]1[C@@H](C)[C@H]4O
2. O=C(O)c1ccc2c(c1Nc1ccccc1)C(=O)c1ccccc1C2=O
3. N.N.N.N.N.N.[I-].[Os]
4. CCOC(=O)c1c(-c2ccccc2)[n+](=O)c2ccc(Cl)cc2n1[O-]
5. COc1ccc(/C=C2\CN(Cc3cn(CCCNc4ccnc5cc(Cl)ccc45)nn3)C/C(=C\c3ccc(OC)c(OC)c3)C2=O)cc1OC

1: < 0.01 µM; 2: > 100 µM; 3: > 100 µM; 4: 4.93 µM; 5: 1.39 µM

---

System: MOLT-4 leukemia
Experiment: NCI tumour cell line growth inhibition, 48 h
MEASURE: TGI

Please review the entries below; each comes with its answer.
>  <COMPOUND>
Cc1cccc2c(N=Nc3ccc(S(N)(=O)=O)cc3)c(O)[nH]c12

>  <TGI>
> 25 µM

$$$$
>  <COMPOUND>
O=C1N=C(c2ccccc2)OC1C(=O)c1ccccc1 (stereo not drawn)

>  <TGI>
> 100 µM

$$$$

As a next step, examine the compound that follows.
Quote TGI reported for `Cc1cc(C)c(O)c(Cc2cccc(Cc3cc(C)cc(C)c3O)c2O)c1` please.
> 100 µM
